Molecular target: T1, O3-AA
T1 chain: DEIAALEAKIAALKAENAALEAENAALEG
Assay: two-hybrid library CCmax;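 further: natural log of median RNA to DNA barcode read ratio; higher means stronger binding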
Conditions: mean of both orientations
property: interaction score

Solved cases (6 shown):
* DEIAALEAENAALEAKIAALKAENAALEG [4H171-AA] | -1.73
* DENAALEAEIAALEAENAALEAKIAALKG [O14-AA] | -1.47
* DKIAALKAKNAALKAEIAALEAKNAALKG [4H3016-AA] | -0.74
* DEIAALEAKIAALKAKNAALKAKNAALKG [4H384-AA] | 1.52
* DKIAALKAEIAALEAENAALEAENAALEG [O11-AA] | -0.899
* DKNAALKAENAALEAEIAALEAEIAALEG [O1-AA] | -1.57

(1) DENAALEAKNAALKAKIAALKAKIAALKG [O2-AA]
(2) DKNAALKAKIAALKAKNAALKAEIAALEG [O13-AA]
*Q* Select the item whose interaction score value is smaller, choosing between 1 and 2 . Returns: label corresponding to the selected item.
*A* 2
